Reference source: the RNAGym collection of RNA variant scans (doi:10.1126/science.aae0568)

I'd be grateful if you could share measured yeast fitness for these entries.
B1: tRNA (parent)
chain: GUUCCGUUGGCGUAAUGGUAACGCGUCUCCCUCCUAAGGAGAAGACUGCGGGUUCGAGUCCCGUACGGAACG

# Variants of: B1
# run-description: yeast fitness relative to wild type (ratio to wild type); higher = fitter; tRNA-Arg(CCU), competitive growth, 37 C, YPD
Fewer inactive variants are shown than the library holds.

// solved cases for yeast fitness follow
seq_string=GUUCCGUUGGCGUAAUGGUAACGCGUCUCCCACCUACGGAGAAGACUGCGGGUUCGAGUCCCGUAUGGAACG reading="≤ 0.5"
seq_string=GUUCCGUUGGCGUAAUGGUAAAGCGUUUCCCUCCUAAGGAGAAGACUGCGGGUUCACGUCCCGUACGGAACG reading="≤ 0.5"
seq_string=GAUCCGUUGGCGUAAUGGUAACGCGUCUCCCUCCUAAGGAGAAGACUGCGGGUUCGAGUCCCGUAUGGAACG reading=0.739
seq_string=GUUCCGUUGGCGUAAUGGUAACGCGUCUCCUUCGUAAGGAGAAGACUGUGGAUUCGAGUCCCGUACGGUACG reading="≤ 0.5"

Your task in this section: give yeast fitness for each listed record.
1. GUACCGUUGGCGUAAUGGGAACGCAUCUCCCUCCUAAGGAGAAGACUGCGGGUUCGAGUCCCGUACAGAACG
2. GUUCCGUUGGCGUGAUGGUAACGCGUCUCCCUCCUAAGGAGAAGACCGCGGGUUCGAGUCCCGUACGGCACG
3. GUUCCAUUGGCCUAAUGCUAACGCGUCUCCCUCCUAAGGAAAGGACUACGGGUUCGAGUCCCGUACGGAACG
4. GUUCUGUUGGCGUAAUGGUAACGCGUCUCCCUCCUAAGGAGAAGACUGCGGGUUUGAGUCCCGUACGGAACG
5. GUUACGUUGGCGUAAUGGUAACGCGUCUCCCUCCCAAGGAGAAGACUGCGGGUUCGUGUCCCGUACGGAACG

OUTPUT:
1. 0.56
2. 0.706
3. ≤ 0.5
4. 0.864
5. ≤ 0.5

Your task in this section: give yeast fitness for each listed record.
1. GUUCCGUUGGCGUAAUGGUAACGCGUCUCUCUCCUAAGGAGAAGACUGCGGGUUCGAGUGACGUACGGGACG
2. GUUCCGAUAGCGUAAUAGUAACGAGUCUCCCUCCUAAGGAGAAGACUGCGGGUUCGAGUCCCGUACGGAACG

OUTPUT:
≤ 0.5
≤ 0.5
